targetUnderTest: QNT
procedureSummary: BIAcore

binder	Kd / pM
LY6G6D (other) NRMRCYNCGGSPSSSCKEAVTTCGEGRPQPGLEQIKLPGNPPVTLIHQHPACVAAHHCNQVETESVGDVTYPAHRDCYLGDLCNS	280
